Measurement name: melting point

Completed entries (count: 2):
[[record]]
compound = "O=C(CCCC(=O)C(F)(F)F)c1ccc(OCCCCOc2ccccc2)cc1 [Example 54]"
result = "78.8 to 80.4 °C"

[[record]]
compound = "CCCCCCCCCCCCCCOc1ccc(C(=O)CCCC(=O)C(F)(F)F)cc1 [Example 65]"
result = "63.3 to 65 °C"


Supply melting point value. Item: O=C(CCCOc1ccc(OCCCc2ccccc2)cc1)C(F)(F)F [Example 32]
32 to 35 °C

Note down melting point recorded for O=C(CCCC(=O)C(F)(F)F)c1ccc(OCCCc2ccccc2)cc1 [Example 55]
52.6 to 54.5 °C

Please supply the value of reported melting point for the item O=C(CCCCCCCCCCOc1ccccc1)C(F)(F)F [Example 5, 1,1,1-trifluoro-12-phenoxy-dodecan-2-one]
47 to 49 °C

Tell me measured melting point for CCCCCCCCCCCCCCCCOc1ccc(C(=O)CCCC(=O)C(F)(F)F)cc1 [Example 63] please.
67.7 to 68.9 °C
